The values you see were collected from patent US20050228016A1.

Biological target: Gal4DBD/AaEcR (DEF) (Aedes aegypti)
Construct: The wildtype D, E, and F domains from mosquito Aedes aegypti EcR; expressed in transfected cells; host or cells: 3T3 cells
Sequence (P28704 286-520 A311G/G315S/G445S/I449V): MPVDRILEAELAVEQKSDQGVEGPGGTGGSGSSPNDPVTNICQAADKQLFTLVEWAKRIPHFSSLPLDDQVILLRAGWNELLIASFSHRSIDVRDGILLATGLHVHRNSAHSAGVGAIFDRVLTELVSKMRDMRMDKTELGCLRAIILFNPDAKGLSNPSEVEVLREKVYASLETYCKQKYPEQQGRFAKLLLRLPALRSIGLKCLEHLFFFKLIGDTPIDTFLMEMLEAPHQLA
Sequence (P49880 405-776): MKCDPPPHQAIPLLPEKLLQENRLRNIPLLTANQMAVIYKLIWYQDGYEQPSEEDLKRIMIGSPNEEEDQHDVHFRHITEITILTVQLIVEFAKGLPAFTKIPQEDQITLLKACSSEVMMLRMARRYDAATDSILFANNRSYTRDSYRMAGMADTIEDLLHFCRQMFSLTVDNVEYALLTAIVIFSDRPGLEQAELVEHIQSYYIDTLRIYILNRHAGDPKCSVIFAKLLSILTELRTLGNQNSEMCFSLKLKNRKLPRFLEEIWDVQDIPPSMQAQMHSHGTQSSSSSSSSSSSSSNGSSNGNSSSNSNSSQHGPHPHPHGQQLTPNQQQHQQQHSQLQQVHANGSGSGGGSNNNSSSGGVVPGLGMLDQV
Experiment: cell-based
Type: cell-based
Conditions: 33 μM; 3T3 cells; 48 h; average of two wells
Provide the reported Fold Induction Average, AA_3T3V1 Assay 33 μM of each item.
Answer with a number only, understood to be in fold.

# compound COc1ccc(C(=O)N(c2ccccc2)C2CC(C)N(C(=O)c3ccc(Cl)cc3)c3ccccc32)cc1 (centres unmarked) ; its Fold Induction Average, AA_3T3V1 Assay 33 μM = 249

# compound Cc1ccc(N[C@H]2C[C@H](C)N(C(=O)c3cccc(C(F)(F)F)c3)c3ccc(C)cc32)cc1 (relative stereo) ; its Fold Induction Average, AA_3T3V1 Assay 33 μM = 13

# compound Cc1ccc(NC2CC(C)N(C(=O)c3cccc(F)c3)c3ccc(C)cc32)cc1 (centres unmarked) [Compound I-203] ; its Fold Induction Average, AA_3T3V1 Assay 33 μM = 3

# compound CC1CC(Nc2ccccc2)c2ccccc2N1C(=O)C=Cc1ccco1 (centres unmarked) ; its Fold Induction Average, AA_3T3V1 Assay 33 μM = 81

# compound CCc1ccc(C(=O)N2c3ccccc3C(Nc3ccccc3)CC2C)cc1 (centres unmarked) [Compound I-59] ; its Fold Induction Average, AA_3T3V1 Assay 33 μM = 4

# compound COc1ccc(NC2CC(C)N(C(=O)c3ccc(C)cc3)c3ccccc32)cc1 (mixture of isomers) ; its Fold Induction Average, AA_3T3V1 Assay 33 μM = 81

# compound CC1CC(Nc2ccc(F)cc2)c2cc(F)ccc2N1C(=O)c1cccc(C(F)(F)F)c1 (centres unmarked) ; its Fold Induction Average, AA_3T3V1 Assay 33 μM = 384

# compound CC(=O)N1c2ccccc2C(N(C(=O)c2ccc(C)cc2)c2ccccc2)CC1C (centres unmarked) ; its Fold Induction Average, AA_3T3V1 Assay 33 μM = 1

====

Target: Bombyx mori EcR (VP16-BmEcR, CVBE) (Bombyx mori)
Construct: expressed in transfected cells
Experiment: Z3 assay (HEK-293 clone Z3 with CVBE and 6x EcRE LacZ, β-galactosidase reporter)
Type: cell-based
Conditions: 48 h, average of two wells
measurement label: Fold Induction Average, Z3V1 Assay 33 μM (fold)
Answer with a number only, understood to be in fold.

# compound Cc1ccc(N[C@H]2C[C@H](C)N(C(=O)c3ccc(F)c(F)c3)c3ccc(C)cc32)cc1 (relative stereo) [Compound I-21] ; its Fold Induction Average, Z3V1 Assay 33 μM = 1

# compound C[C@H]1C[C@@H](Nc2ccc(F)cc2)c2cc(F)ccc2N1C(=O)c1ccc(F)c(C(F)(F)F)c1 (relative stereo) [Compound I-4] ; its Fold Induction Average, Z3V1 Assay 33 μM = 1

# compound CCOC(=O)C(=O)N1c2ccccc2C(Nc2ccccc2)CC1C (stereo not shown) [Compound I-171] ; its Fold Induction Average, Z3V1 Assay 33 μM = 1

# compound C[C@H]1C[C@H](Nc2ccccc2)c2ccccc2N1C(=O)c1ccc(C(F)(F)F)c(F)c1 (relative stereo) [Compound I-17] ; its Fold Induction Average, Z3V1 Assay 33 μM = 9

====

Biological target: Bombyx mori EcR (VP16-BmEcR, CVBE) (Bombyx mori)
Construct: expressed in transfected cells
Assay: Z3 assay (HEK-293 clone Z3 with CVBE and 6x EcRE LacZ, β-galactosidase reporter)
Type: cell-based
Conditions: 48 h, average of two wells
Provide the reported Fold Induction Average, Z3V1 Assay 33 μM of each item.
Answer with a number only, understood to be in fold.

Here COC(=O)c1ccc(C(=O)N2c3ccccc3[C@@H](Nc3ccccc3)C[C@@H]2C)cc1 (relative stereo) [Compound I-84] was tested on Bombyx mori EcR (VP16-BmEcR, CVBE) (Bombyx mori), and its Fold Induction Average, Z3V1 Assay 33 μM came to 3

Here COc1ccc(C(=O)N2c3ccccc3[C@@H](Nc3ccccc3)C[C@@H]2C)cc1 (relative stereo) [Compound I-83] was tested on Bombyx mori EcR (VP16-BmEcR, CVBE) (Bombyx mori), and its Fold Induction Average, Z3V1 Assay 33 μM came to 8

Here Cc1ccc(C(=O)N2c3ccccc3C(Nc3ccccc3Cl)CC2C)cc1 (mixture of isomers) [Compound I-41] was tested on Bombyx mori EcR (VP16-BmEcR, CVBE) (Bombyx mori), and its Fold Induction Average, Z3V1 Assay 33 μM came to 1

Here COc1cccc(NC2CC(C)N(C(=O)c3ccccc3)c3ccccc32)c1 (stereo not drawn) [Compound I-137] was tested on Bombyx mori EcR (VP16-BmEcR, CVBE) (Bombyx mori), and its Fold Induction Average, Z3V1 Assay 33 μM came to 1

Here C[C@H]1C[C@@H](Nc2ccc(F)cc2)c2cc(F)ccc2N1C(=O)c1ccc(C(F)(F)F)c(F)c1 (relative stereo) [Compound I-25] was tested on Bombyx mori EcR (VP16-BmEcR, CVBE) (Bombyx mori), and its Fold Induction Average, Z3V1 Assay 33 μM came to 1

Here COc1cccc(C(=O)N(c2ccccc2)C2CC(C)N(C(C)=O)c3ccccc32)c1 (stereo not drawn) [Compound I-142] was tested on Bombyx mori EcR (VP16-BmEcR, CVBE) (Bombyx mori), and its Fold Induction Average, Z3V1 Assay 33 μM came to 1

Here CC1CC(Nc2ccccc2)c2ccccc2N1C(=O)C=Cc1ccccc1 (stereo not drawn) [Compound I-163] was tested on Bombyx mori EcR (VP16-BmEcR, CVBE) (Bombyx mori), and its Fold Induction Average, Z3V1 Assay 33 μM came to 27

Here C[C@H]1C[C@H](Nc2ccc(F)cc2)c2cc(F)ccc2N1C(=O)c1cccc(C(F)(F)F)c1 (relative stereo) [Compound I-79] was tested on Bombyx mori EcR (VP16-BmEcR, CVBE) (Bombyx mori), and its Fold Induction Average, Z3V1 Assay 33 μM came to 137

Here COC(=O)c1ccc(C(=O)N2c3ccc(C)cc3[C@@H](Nc3ccc(C)cc3)C[C@@H]2C)cc1 (relative stereo) [Compound I-89] was tested on Bombyx mori EcR (VP16-BmEcR, CVBE) (Bombyx mori), and its Fold Induction Average, Z3V1 Assay 33 μM came to 1

Here C[C@H]1C[C@H](Nc2ccc(F)cc2)c2cc(F)ccc2N1C(=O)c1ccc(F)c(C(F)(F)F)c1 (relative stereo) [Compound I-5] was tested on Bombyx mori EcR (VP16-BmEcR, CVBE) (Bombyx mori), and its Fold Induction Average, Z3V1 Assay 33 μM came to 96

Here CCc1ccc(C(=O)N2c3ccc(C)cc3[C@@H](Nc3ccc(C)cc3)C[C@@H]2C)cc1 (relative stereo) [Compound I-64] was tested on Bombyx mori EcR (VP16-BmEcR, CVBE) (Bombyx mori), and its Fold Induction Average, Z3V1 Assay 33 μM came to 1

Here CCCCCc1ccc(C(=O)N2c3ccccc3C(Nc3ccccc3)CC2C)cc1 (stereo not drawn) [Compound I-138] was tested on Bombyx mori EcR (VP16-BmEcR, CVBE) (Bombyx mori), and its Fold Induction Average, Z3V1 Assay 33 μM came to 1

Here COc1ccc(C(=O)N2c3ccccc3C(Nc3ccccc3)CC2C)cc1 (stereo not drawn) [Compound I-95] was tested on Bombyx mori EcR (VP16-BmEcR, CVBE) (Bombyx mori), and its Fold Induction Average, Z3V1 Assay 33 μM came to 1

Here CC1CC(Nc2ccccc2)c2ccccc2N1C(=O)c1ccc(I)cc1 (stereo not drawn) [Compound I-168] was tested on Bombyx mori EcR (VP16-BmEcR, CVBE) (Bombyx mori), and its Fold Induction Average, Z3V1 Assay 33 μM came to 3

Here COc1cccc(N(C(C)=O)C2CC(C)N(C(=O)c3ccccc3)c3ccccc32)c1 (stereo not drawn) [Compound I-140] was tested on Bombyx mori EcR (VP16-BmEcR, CVBE) (Bombyx mori), and its Fold Induction Average, Z3V1 Assay 33 μM came to 1

====

Molecular target: Bombyx mori EcR (VP16-BmEcR, CVBE) (Bombyx mori, UniProt P49881)
Construct: expressed in transfected cells
Sequence (P49881 86-606): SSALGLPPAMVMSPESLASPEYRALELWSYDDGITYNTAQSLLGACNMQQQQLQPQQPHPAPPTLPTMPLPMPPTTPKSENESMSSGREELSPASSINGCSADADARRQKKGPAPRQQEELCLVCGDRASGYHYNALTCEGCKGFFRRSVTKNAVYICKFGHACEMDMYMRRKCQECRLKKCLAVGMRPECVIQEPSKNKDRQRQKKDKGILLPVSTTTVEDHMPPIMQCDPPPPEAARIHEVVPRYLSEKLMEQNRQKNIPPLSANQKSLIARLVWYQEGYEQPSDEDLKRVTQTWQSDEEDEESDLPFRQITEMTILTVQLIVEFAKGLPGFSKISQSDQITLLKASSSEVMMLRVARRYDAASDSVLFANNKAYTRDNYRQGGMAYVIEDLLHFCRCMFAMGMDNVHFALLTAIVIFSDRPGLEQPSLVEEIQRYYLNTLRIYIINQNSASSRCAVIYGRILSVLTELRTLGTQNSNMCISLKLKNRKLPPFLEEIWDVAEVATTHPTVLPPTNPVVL
Experiment: Z3 assay (HEK-293 clone Z3 with CVBE and 6x EcRE LacZ, β-galactosidase reporter)
Format: cell-based
Conditions: 48 h, average of two wells
Provide the reported Fold Induction Average, Z3V1 Assay 33 μM of each item.
Answer with a number only, understood to be in fold.

# compound Cc1ccc(C(=O)N2c3ccc(F)cc3C(Nc3ccc(F)cc3)CC2C)cc1 (stereo not shown) ; its Fold Induction Average, Z3V1 Assay 33 μM = 3

# compound CCCCCCC(=O)N1c2ccccc2[C@@H](Nc2ccccc2)C[C@@H]1C (relative stereo) ; its Fold Induction Average, Z3V1 Assay 33 μM = 10

# compound CCCC(=O)N1c2ccccc2C(N(C(=O)c2cccc(OC)c2)c2ccccc2)CC1C (stereo not shown) ; its Fold Induction Average, Z3V1 Assay 33 μM = 1

# compound Cc1ccc(N[C@H]2C[C@H](C)N(C(=O)c3ccc(C)cc3)c3ccc(C)cc32)cc1 (relative stereo) ; its Fold Induction Average, Z3V1 Assay 33 μM = 1
